# Assayed target: pooled human IgG (human IgG1, 2, 3 and 4)
Readout: Enzyme Activity Endpoint Assay (purified): IgG (ng/µL)
Quick note: give the figure in ng/µL, leave out the unit.

So what's the measured Enzyme Activity Endpoint Assay (purified): IgG for this one? PRT-644 (protein) MQITSVWTKGVTPLTPEQFRYNNEDVIHAPYLAHQGWYDITKAFDGKDNLLCGAATAGNMLHWWFDQNKTEIEAYLSKHPEKQKIIFNNQELFDLKAAIDTKDSQTNSQLFNYFRDKAFPNLSARQLGVMPDLVLDMFINGYYLNVFKTQSTDVNRPYQDKDKRGGIFDAVFTRGDQTTLLTARHDLKNKGLNDISTIIKQELTEGRALALSHTYANVSISHVINLWGADFNAEGNLEAIYVTDSDANASIGMKKYYVGKNASGHVAISAKKIEDENIGAQVLGLFTLSSGKDIWQKLSLEHHHHHH 0
